Biological target: eNOS promoter
Assay: Activation of eNOS transcription (eNOS promoter firefly luciferase reporter)
Format: cell-based
Details: EC50 of transcription induction ratio (TIR) vs compound concentration, determined graphically; stably transfected human endothelial cell line, 18 h incubation
measured_parameter: pEC50
Give bare numbers, as −log10 of the molar value.

[[record]]
molecule = "O=C(N[C@H]1CCc2ccccc2C1)c1cccc2[nH]ccc12"
numeric_value = 5.05

[[record]]
molecule = "Cc1nc2cc(C(=O)N[C@@H]3CCc4ccccc4C3)ccc2[nH]1"
numeric_value = 4.61


Each molecule below has a recorded value; state its pEC50.
1. Cc1c(C(=O)N[C@H]2CCc3ccccc3C2)cnn1-c1ccccc1
2. Cc1nc(C)c(C(=O)N[C@@H]2CCc3ccccc3C2)s1
3. Cc1ncccc1C(=O)N[C@@H]1CCc2ccccc2C1
4. Cc1nc(C(F)(F)F)c(C(=O)N[C@@H]2CCc3ccccc3C2)s1
5. O=C(N[C@H]1CCc2ccccc2C1)c1cncc(-c2cccs2)c1
6. O=C(N[C@@H]1CCc2ccccc2C1)c1cncc(-c2cccs2)c1
7. O=C(N[C@H]1CCc2cccc(Br)c2C1)c1ccc(F)cc1
8. CCCc1c(C(=O)N[C@H]2CCc3ccccc3C2)cnn1-c1cc(Cl)cc(Cl)c1

**Result**
1. 5.95
2. 4.98
3. 6.74
4. 6.54
5. 6.52
6. 5.35
7. 5.00
8. 4.63
